Biological target: B1R receptor of the rat (Rattus norvegicus, UniProt P97583)
Construct: host or cells: CHO K1 cells (Chinese hamster ovary), stably transfected
Sequence (P97583 whole entry): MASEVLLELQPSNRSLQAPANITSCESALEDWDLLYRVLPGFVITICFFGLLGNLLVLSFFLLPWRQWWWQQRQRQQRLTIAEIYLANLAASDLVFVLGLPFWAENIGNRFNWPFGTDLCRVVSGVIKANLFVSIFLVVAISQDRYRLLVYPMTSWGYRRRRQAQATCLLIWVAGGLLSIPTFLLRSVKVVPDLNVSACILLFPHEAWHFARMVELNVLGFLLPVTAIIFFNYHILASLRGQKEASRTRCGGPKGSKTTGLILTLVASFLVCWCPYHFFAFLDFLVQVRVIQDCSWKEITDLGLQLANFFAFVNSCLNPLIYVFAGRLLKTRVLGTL
Assay: Functional study on the bradykinin receptor 1 (B1R), FLIPR Ca2+ assay, rB1R cells
Format: cell-based
Details: CHO-K1, test substance 10 μM, agonist Des-Arg9-bradykinin 100 nM, % inhibition compared with the maximum achievable inhibition, read-out: B1R Antagonism, rat [10 μM] % Inhibition
Source text: The agonistic or antagonistic action of substances can be quantified on the bradykinin receptor 1 (B1R) of the species human and rat with ectopically expressing cell lines (CHO K1 cells) and with the aid of a Ca^2+-sensitive dye (Fluo-4) using a fluorescent imaging plate reader (FLIPR). […] The agonistic or antagonistic action of substances can be determined on the bradykinin receptor 1 (B1R) of the species human and rat using the following assay. […]
Reported values of inhibition at 10 µM for individual entries
Numeric only. Scale: %

Examples from the recorded data:
compound: O=C(COCC1CCCCN1S(=O)(=O)c1ccc(Cl)c(Cl)c1)N1CCN(c2ccccc2)CC1 (stereo not shown) [Example 56]
inhibition at 10 µM, %: 0

compound: COc1cc(C)c(S(=O)(=O)N2CCCCC2COCC(=O)Nc2ccc(N3CCOCC3)nc2)c(C)c1 (stereo not shown) [Example 396]
inhibition at 10 µM, %: 80.6

compound: COc1cc(C)c(S(=O)(=O)N2CCCCC2COCC(=O)N(C2CC2)C2CCN(Cc3ccccc3)CC2)c(C)c1 (stereo not shown) [Example 342]
inhibition at 10 µM, %: 100

What does the record list as inhibition at 10 µM for COc1cc(C)c(S(=O)(=O)N2CCCCC2COCC(=O)N2CCCN(Cc3ccccc3)CC2)c(C)c1 (stereo not shown) [Example 362] ?
102

What does the record list as inhibition at 10 µM for COc1cc(C)c(S(=O)(=O)N2CCCCC2COCC(=O)N(C)Cc2ccc(C3=NCCN3)cc2)c(C)c1.Cl (stereo not shown) [Example 193, hydrochloride] ?
98.3

What does the record list as inhibition at 10 µM for Cc1ccc(N2CCN(C(=O)COCC3CCCN3S(=O)(=O)c3c(Cl)cccc3Cl)CC2)cc1C (stereo not shown) [Example 355] ?
102

What does the record list as inhibition at 10 µM for COc1cc(C)c(S(=O)(=O)N2CCCCC2COCC(=O)N2CCN(Cc3ccccc3F)CC2)c(C)c1 (stereo not shown) [Example 387] ?
101
